Reference source for all entries: patent EP0559700B1

Reported log10 half-life values for the following compounds.
Assay: Stability of the compounds: buffer hydrolysis (half-times, shelf-life)
Format: physicochemical
Details: buffer pH 6.00, ionic strength 0.5, 37°C; read-out: Half-times in buffers at 37°C, T½, pH 6.00 (converted)
MEASURE NAME: log10 half-life (log10 of the value in days)

>  <COMPOUND>
CC[C@H](C(=O)OCCCCCOC(=O)[C@@H](CC)[C@H](CO)Cc1cncn1C)[C@H](CO)Cc1cncn1C

>  <log10 half-life>
0.01

$$$$
>  <COMPOUND>
CC[C@H](C(=O)OCCCOC(=O)[C@@H](CC)[C@H](CO)Cc1cncn1C)[C@H](CO)Cc1cncn1C

>  <log10 half-life>
-0.37

$$$$
>  <COMPOUND>
CCC(=O)OC[C@H](Cc1cncn1C)[C@H](CC)C(=O)OCc1ccccc1 [propionyl, benzyl, reference compound]

>  <log10 half-life>
2.35

$$$$
>  <COMPOUND>
CC[C@H](C(=O)OCc1ccccc1COC(=O)[C@@H](CC)[C@H](CO)Cc1cncn1C)[C@H](CO)Cc1cncn1C

>  <log10 half-life>
-0.85

$$$$
>  <COMPOUND>
CC[C@H](C(=O)OCc1ccccc1)[C@H](COC(=O)CCCC(=O)OC[C@H](Cc1cncn1C)[C@H](CC)C(=O)OCc1ccccc1)Cc1cncn1C [Example 16, O,O'-Glutaryl (dibenzyl) bispilocarpate]

>  <log10 half-life>
1.96

$$$$
>  <COMPOUND>
CCC(=O)OC[C@H](Cc1cncn1C)[C@H](CC)C(=O)OCc1ccc(COC(=O)[C@@H](CC)[C@H](COC(=O)CC)Cc2cncn2C)cc1

>  <log10 half-life>
1.70

$$$$
